assayedTarget: human PD-1 (Jurkat-PD-1 cells) / PE-labeled human PD-L1-Ig (Homo sapiens)
Construct: expressed in transfected cells; host or cells: Jurkat cell line over-expressing human PD-1
Sequence (Q15116 25-288): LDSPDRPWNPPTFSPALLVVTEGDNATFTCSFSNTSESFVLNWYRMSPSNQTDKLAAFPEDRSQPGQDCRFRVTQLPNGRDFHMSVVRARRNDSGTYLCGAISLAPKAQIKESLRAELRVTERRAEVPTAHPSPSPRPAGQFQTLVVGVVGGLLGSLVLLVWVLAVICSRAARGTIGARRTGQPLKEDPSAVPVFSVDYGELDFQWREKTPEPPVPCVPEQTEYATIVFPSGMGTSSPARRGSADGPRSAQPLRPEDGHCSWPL
testDetails: Jurkat-PD-1 Cell Binding High-Content Screening Assay (CBA); Jurkat hPD1-PDL1 assay
conditionDescription: Jurkat cell line over-expressing human PD-1; PE-labeled PD-L1-Ig 20 nM final; compound incubated 2 hours at 37° C.; read-out: Jurkat HPD1-PDL1 IC50
Positions of bridges follow the written chain, without caps; N, C: chain ends. Non-standard residues stand in square brackets, D forms with d. Residues, ends and D or L forms follow the SMILES beside them. Phe(4-CONH2) = NC(=O)c1ccc(C[C@H](N)C(=O)O)cc1; Bip = N[C@@H](Cc1ccc(-c2ccccc2)cc1)C(=O)O; NMeF = CN[C@@H](Cc1ccccc1)C(=O)O; Cit = NC(=O)NCCC[C@H](N)C(=O)O; NMeA = CN[C@@H](C)C(=O)O; Sar = CNCC(=O)O
Measured pIC50, listed per entry for reference.
The scale used: pIC50 is minus the common logarithm of the concentration in molar units.

Before answering, review these 3 worked examples.
CC(C)C[C@@H]1NC(=O)[C@H](Cc2c[nH]c3ccccc23)NC(=O)[C@H](CC(=O)O)NC(=O)[C@H](Cc2ccc(O)cc2)NC(=O)[C@H](Cc2ccc(C(N)=O)cc2)NC(=O)CSC[C@@H](C(=O)NCC(N)=O)NC(=O)[C@H](CO)NC(=O)[C@H](C(C)C)NC(=O)[C@H](CC(C)C)NC(=O)[C@H](CC(N)=O)NC(=O)CN(C)C(=O)[C@H](C)N(C)C(=O)[C@H](C(C)C)NC(=O)[C@H](Cc2ccc(-c3ccccc3)cc2)NC1=O [Example 1174] ({CH2CO}-[Phe(4-CONH2)]YDWL[Bip]V[NMeA][Sar]NLVSCG-NH2; thioether N-14) = 6.01
CC(C)C[C@@H]1NC(=O)[C@H](Cc2c[nH]c3ccccc23)NC(=O)[C@H](CC(=O)O)NC(=O)[C@H](Cc2ccc(O)cc2)NC(=O)[C@H](Cc2ccccc2)NC(=O)CSC[C@@H](C(=O)NCC(N)=O)NC(=O)[C@H](CO)NC(=O)[C@H](C(C)C)NC(=O)[C@H](CC(C)C)NC(=O)[C@H](CCCNC(=N)N)NC(=O)CN(C)C(=O)[C@H](C)N(C)C(=O)[C@H](CC(=O)O)NC(=O)[C@H](Cc2ccc(-c3ccccc3)cc2)NC1=O [Example 1237] ({CH2CO}-FYDWL[Bip]D[NMeA][Sar]RLVSCG-NH2; thioether N-14) = 6.28
CC(C)C[C@@H]1NC(=O)[C@H](CCCNC(=N)N)NC(=O)[C@H](Cc2ccccc2)N(C)C(=O)[C@H](C)N(C)C(=O)[C@H](CCCNC(N)=O)NC(=O)[C@H](Cc2ccc(-c3ccccc3)cc2)NC(=O)[C@H](C(C)C)NC(=O)[C@H](Cc2c[nH]c3ccccc23)NC(=O)[C@H](CC(=O)O)NC(=O)[C@H](Cc2ccc(O)cc2)NC(=O)[C@H](Cc2ccccc2)NC(=O)CSC[C@@H](C(=O)NCC(N)=O)NC(=O)[C@H](CO)NC(=O)[C@H](C(C)C)NC1=O [Example 1245] ({CH2CO}-FYDWV[Bip][Cit][NMeA][NMeF]RLVSCG-NH2; thioether N-14) = 6.96

Read the next record carefully.
Checklist item: pIC50 tested on human PD-1 (Jurkat-PD-1 cells) / PE-labeled human PD-L1-Ig (Homo sapiens), entry CC(C)C[C@@H]1NC(=O)[C@H](CC(N)=O)NC(=O)CN(C)C(=O)[C@H](C)N(C)C(=O)[C@H](C(C)C)NC(=O)[C@H](Cc2ccc(-c3ccccc3)cc2)NC(=O)[C@H](Cc2ccc(O)cc2)NC(=O)[C@H](Cc2c[nH]c3ccccc23)NC(=O)[C@H](CC(=O)O)NC(=O)[C@H](Cc2ccc(O)cc2)NC(=O)[C@H](Cc2ccccc2)NC(=O)CSC[C@@H](C(=O)NCC(N)=O)NC(=O)[C@H](CO)NC(=O)[C@H](C(C)C)NC1=O [Example 1224] ({CH2CO}-FYDWY[Bip]V[NMeA][Sar]NLVSCG-NH2; thioether N-14) , value?
6.80
